Hi there, I'd appreciate the recorded pEC50 for every entry that follows.
Target: Uracil nucleotide/cysteinyl leukotriene receptor (Rattus norvegicus)
Sequence (Q09QM4 whole entry): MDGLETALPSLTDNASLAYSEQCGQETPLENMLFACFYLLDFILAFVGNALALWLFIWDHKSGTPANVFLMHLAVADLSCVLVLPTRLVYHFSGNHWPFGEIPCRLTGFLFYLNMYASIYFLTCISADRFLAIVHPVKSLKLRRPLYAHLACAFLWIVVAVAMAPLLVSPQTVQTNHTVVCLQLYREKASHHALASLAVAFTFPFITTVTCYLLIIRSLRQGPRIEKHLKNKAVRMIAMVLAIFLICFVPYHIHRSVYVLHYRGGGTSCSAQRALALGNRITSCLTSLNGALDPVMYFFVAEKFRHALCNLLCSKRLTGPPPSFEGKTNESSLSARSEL
Assay: Agonist activity at rat GPR17 expressed in HEK293 cells assessed as induction of intracellular calcium mobilization by calcium 5-dye based assay
Format: functional, cell-based
Answers are plain numbers, as −log10 of the molar value.

Solved cases below.
[[record]]
molecular_string = "CCCCCCOc1cc(Cl)c2c(CCC(=O)O)c(C(=O)O)[nH]c2c1"
value_measured = 5.64

[[record]]
molecular_string = "CCCCCCOc1ccc2c(CCC(=O)O)c(C(=O)O)[nH]c2c1"
value_measured = 5.27


Could you now look at the following molecule, please?
Value of pEC50 reported for the molecule O=C(O)CCc1c(C(=O)O)[nH]c2cc(Cl)cc(Cl)c12 is 6.15

====

Target: Uracil nucleotide/cysteinyl leukotriene receptor (Homo sapiens, UniProt Q13304)
Sequence (Q13304 whole entry): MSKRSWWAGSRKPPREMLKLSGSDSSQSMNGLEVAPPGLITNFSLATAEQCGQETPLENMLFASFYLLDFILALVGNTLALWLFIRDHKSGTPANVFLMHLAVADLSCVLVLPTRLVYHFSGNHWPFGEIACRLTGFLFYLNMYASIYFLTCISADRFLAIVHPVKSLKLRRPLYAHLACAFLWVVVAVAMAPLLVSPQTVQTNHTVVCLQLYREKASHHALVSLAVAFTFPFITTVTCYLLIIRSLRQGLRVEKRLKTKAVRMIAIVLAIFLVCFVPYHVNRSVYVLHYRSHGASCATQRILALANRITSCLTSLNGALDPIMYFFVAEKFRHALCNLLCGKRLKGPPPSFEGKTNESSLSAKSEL
Assay: Agonist activity at human GPR17 expressed in human 1321N1 cells assessed as induction of calcium mobilization after 1 hr by Oregon Green BAPTA-1/AM dye-based fluorescence assay relative to MDL 29,951
Assay type: functional, cell-based
PROPERTY MEASURED: Emax (%)
Give bare numbers, in %.

[[record]]
molecular_string = "O=C(O)CCc1c(C(=O)O)[nH]c2cc(-c3ccccc3)cc(-c3ccccc3)c12"
scale_unit = "%"
value_measured = 84

[[record]]
molecular_string = "O=C(O)CCc1c(C(=O)O)[nH]c2c(F)c(Cl)ccc12"
scale_unit = "%"
value_measured = 87

[[record]]
molecular_string = "O=C(O)CCc1c(C(=O)O)[nH]c2cc(-c3ccc(F)cc3)cc(Cl)c12"
scale_unit = "%"
value_measured = 92

[[record]]
molecular_string = "O=C(O)CCc1c(C(=O)O)[nH]c2c(F)c(Br)ccc12"
scale_unit = "%"
value_measured = 98

[[record]]
molecular_string = "O=C(O)CCc1c[nH]c2cc(Cl)cc(Cl)c12"
scale_unit = "%"
value_measured = 41


Kindly give each listed record's Emax.
1. CCCCCCOc1cc(Cl)c2c(CCC(=O)O)c(C(=O)O)[nH]c2c1
2. CCCCCCCCOc1cc(Cl)c2c(CCC(=O)O)c(C(=O)O)[nH]c2c1
3. O=C(O)CCc1c(C(=O)O)[nH]c2cc(-c3ccccc3)ccc12
4. O=C(O)CCc1c(C(=O)O)[nH]c2cc(F)cc(Br)c12
5. O=C(O)CCc1c(C(=O)O)[nH]c2cc(Cl)cc(-c3ccc(F)cc3)c12
6. O=C(O)CCc1c(C(=O)O)[nH]c2cc(-c3cccs3)ccc12
7. O=C(O)CCc1c(C(=O)O)[nH]c2cc(Cc3ccccc3)ccc12
8. CCCCCCOc1ccc2c(CCC(=O)O)c(C(=O)O)[nH]c2c1

OUT:
[95, 77, 83, 100, 101, 87, 80, 62]

Value of Emax reported for the compound O=C(O)CCc1c(C(=O)O)[nH]c2c(F)c(-c3ccco3)ccc12 is 57

====

Target: Uracil nucleotide/cysteinyl leukotriene receptor (Homo sapiens)
Assay: Agonist activity at human GPR17 expressed in human 1321N1 cells assessed as induction of calcium mobilization after 1 hr by Oregon Green BAPTA-1/AM dye-based fluorescence assay
Hi there, I'd appreciate the recorded EC50 for every entry that follows.
One number for each entry, in µM.

Solved cases below.
[[record]]
molecular_string = "O=C(O)CCc1c(C(=O)O)[nH]c2cc(-c3ccc(F)cc3)cc(Cl)c12"
value_measured = 0.423

[[record]]
molecular_string = "O=C(O)CCc1c(C(=O)O)[nH]c2c(F)c(-c3ccco3)ccc12"
value_measured = 14.4


Kindly give each listed record's EC50.
1. O=C(O)CCc1c(C(=O)O)[nH]c2cc(Cc3ccccc3)ccc12
2. O=C(O)CCc1c[nH]c2cc(Cl)cc(Cl)c12
3. O=C(O)CCc1c(C(=O)O)[nH]c2cc(-c3ccco3)ccc12
4. CCCCCOc1cc(Cl)c2c(CCC(=O)O)c(C(=O)O)[nH]c2c1
5. O=C(O)CCc1c(C(=O)O)[nH]c2cc(F)cc(Br)c12
6. CCCCCCCCOc1cc(Cl)c2c(CCC(=O)O)c(C(=O)O)[nH]c2c1
7. O=C(O)CCc1c(C(=O)O)n(CCC(=O)O)c2cc(Cl)cc(Cl)c12

OUT:
1. 4.98
2. 1.68
3. 4.13
4. 0.103
5. 0.624
6. 0.117
7. 5.44
